Biological target: human PTH1 receptor (Homo sapiens, UniProt Q03431)
Sequence (Q03431 27-593): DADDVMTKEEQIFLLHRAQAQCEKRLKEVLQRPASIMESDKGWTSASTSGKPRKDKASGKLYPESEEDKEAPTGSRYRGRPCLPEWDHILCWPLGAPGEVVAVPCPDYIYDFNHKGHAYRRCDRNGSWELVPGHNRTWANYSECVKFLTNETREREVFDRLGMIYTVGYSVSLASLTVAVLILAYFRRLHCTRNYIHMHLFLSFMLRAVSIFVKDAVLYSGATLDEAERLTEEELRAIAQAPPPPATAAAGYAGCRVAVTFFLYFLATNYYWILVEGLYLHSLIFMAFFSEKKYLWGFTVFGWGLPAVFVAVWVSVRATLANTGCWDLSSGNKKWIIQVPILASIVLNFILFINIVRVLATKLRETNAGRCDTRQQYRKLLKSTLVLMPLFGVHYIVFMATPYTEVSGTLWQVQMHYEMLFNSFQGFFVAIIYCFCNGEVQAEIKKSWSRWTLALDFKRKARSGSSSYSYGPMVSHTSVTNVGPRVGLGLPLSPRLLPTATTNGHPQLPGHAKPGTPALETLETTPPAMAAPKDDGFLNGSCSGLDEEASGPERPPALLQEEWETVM
Test: In vitro cAMP signal activity in HKRK-B7 cells (LLC-PK1 cells overexpressing the human PTH1 receptor)
Type: cell-based
Conditions: HKRK-B7 cells; compound at 1×10^−3 M; cAMP produced as percentage of that produced by hPTH(1-34) at 100 nM
parameter-measured: cAMP production activity (%)

[[record]]
compound = "Cc1cc(OC[C@H](O)CO)cc(C)c1CCS(=O)(=O)N1CCC2(CC1)N=C(C1CCCCC1)NC2=O"
parameter_measured = "cAMP production activity (%)"
data_value = 67

[[record]]
compound = "CC(=O)NCCNC(=O)CNc1ccc(/C=C/S(=O)(=O)N2CCC3(CC2)N=C(C2CCCCC2)NC3=O)c(C(F)(F)F)c1"
parameter_measured = "cAMP production activity (%)"
data_value = 53

[[record]]
compound = "CC(C)COC(=O)NCc1ccc(/C=C/S(=O)(=O)N2CCC3(CC2)N=C(C2CCCCC2)NC3=O)cc1"
parameter_measured = "cAMP production activity (%)"
data_value = 59

[[record]]
compound = "Cc1cc(N(C)C(N)=O)cc(C)c1CCS(=O)(=O)N1CCC2(CC1)N=C(C1C3CCCC1CCC3)NC2=O (stereo not shown)"
parameter_measured = "cAMP production activity (%)"
data_value = 70

[[record]]
compound = "O=C(O)Cn1ccc2c(/C=C/S(=O)(=O)N3CCC4(CC3)N=C(C3CCCCC3)NC4=O)cccc21"
parameter_measured = "cAMP production activity (%)"
data_value = 27

[[record]]
compound = "Cc1cc(C2=NC3(CCN(S(=O)(=O)/C=C/c4c(C)cc(C(=O)N5CCC(O)(CF)CC5)cc4C)CC3)C(=O)N2)ccc1C(F)(F)F"
parameter_measured = "cAMP production activity (%)"
data_value = 87

[[record]]
compound = "O=C1NC(c2cccc(C(F)(F)F)c2)=NC12CCN(S(=O)(=O)/C=C/c1ccc(NCCO)cc1C(F)(F)F)CC2"
parameter_measured = "cAMP production activity (%)"
data_value = 60


These measurements were taken from patent US9169254B2.
